procedureDetails: Release study 8-4b: degradation of model conjugates M20-M27 in aqueous DMF:PBS at 37 °C, HPLC-UV/MS
Assay type: physicochemical
conditionNotes: 1 mM in 3:1 DMF:PBS (compound M24), first order fit, read-out: Calculated stability t1/2, parent (converted)
resultType: half-life at 1 mM (days)
Express the result in days but write the number alone.

### Prompt Look up half-life at 1 mM: CC[Si](CC)(OCC(C)C)OCC1CN(C(=O)CCNC(=O)OCc2ccccc2)CCN1CC(=O)NCc1ccc(OC)cc1 (stereo not shown)
### Response 36
